Reported EC50 values for the following compounds.
Test: NIH3T3 cell viability loss – ATP luminescence, mouse fibroblasts, counter-screen, dose response (AID 2010);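 also: cells exposed to compound for about 90 hours before reading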
Type: functional, cell-based
Calls of active or inactive are those of the source.

Guide cases for EC50, answers given:
For the compound OC(COc1ccc(OCC(O)CN2CCN(Cc3ccccc3)CC2)cc1)CN1CCN(Cc2ccccc2)CC1 (configuration not stated) , what EC50 is on record?
> 60 µM (not active)

For the compound CN1/C(=C/C(=S)NC(=O)C2(C)CC2(Cl)Cl)C(C)(C)c2ccccc21 (configuration not stated) , what EC50 is on record?
> 60 µM (not active)

For the compound "Cc1cccc(OCCNc2cc(N3CCN(C)CC3)ccc2[N+](=O)[O-])c1" , what EC50 is on record?
> 60 µM (not active)

New cases:
For the compound "Cc1ccc(-n2ncc(Br)c(Br)c2=O)cc1" , what EC50 is on record?
1.97 µM (active)

For the compound "COc1ccc(CNCCc2c(C)[nH]c3ccc(OC(F)(F)F)cc23)c(OC)c1" , what EC50 is on record?
> 60 µM (not active)

For the compound "CCOC(=O)c1cnc2ccc(OCC)cc2c1N1CCN(c2ccccc2OC)CC1" , what EC50 is on record?
> 60 µM (not active)

For the compound "Cc1cccc(N2CCN(C(=O)CCCCCn3c(=S)[nH]c4ccc(N5CCOCC5)cc4c3=O)CC2)c1C" , what EC50 is on record?
> 60 µM (not active)

* * *

Test system: Streptococcus sp. 'group A'
Experiment: Streptococcus pyogenes SK(-)GAS viability under kanamycin – luminescence, BacTiterGlo, confirmation, counter-screen for streptokinase expression inhibitor project, dose response (AID 1900)
Assay type: functional, organism-based
Active and inactive are the calls of the source.
TEST READOUT: EC50

Guide cases for EC50, answers given:
For the molecule COC(=O)C(C)N=C(S)N1CCN(c2c(F)cc3c(=O)c(C(=O)O)cn(C4CC4)c3c2OC)CC1C (configuration not stated) , what EC50 is on record?
2850 nM (active)

For the molecule CC1(c2ccccc2)CC(C)(C)N2C(=O)/C(=C3\SC(=S)NC3=O)c3cccc1c32 (configuration not stated) , what EC50 is on record?
435 nM (active)

For the molecule "Oc1ccc(/C=N/N(Cc2ccccc2)c2ccccc2)cc1" , what EC50 is on record?
7470 nM (active)

For the molecule "c1ccc2c(c1)ncn2CCCOc1ccc2c(c1)CCC2" , what EC50 is on record?
22400 nM (active)

For the molecule "CC(C)CC(=O)Nc1ccc(C(=O)NNC(=S)NC(=O)C2CCCCC2)cc1" , what EC50 is on record?
1650 nM (active)

New cases:
For the molecule "COc1cc(C(=O)NNC(=S)NC(=O)c2ccc(Cl)cc2)cc(OC)c1OC" , what EC50 is on record?
822 nM (active)

For the molecule "Cc1cc(NC(=O)c2ccc(C)s2)n(-c2nc3ccccc3[nH]2)n1" , what EC50 is on record?
3040 nM (active)

* * *

Reported EC50 values for the following compounds.
Test: cells
Format: functional, cell-based
Active and inactive are the calls of the source.

Guide cases for EC50, answers given:
For the compound "CC1(C)CC(NC(=O)CCC2CCCC2)CC(C)(C)N1" , what EC50 is on record?
> 350 µM (not active)

For the compound "O=C(NC(=S)Nc1ccccn1)c1cc(-c2ccccc2)nc2ccccc12" , what EC50 is on record?
47.1 µM (active)

For the compound "CCN1CCN(CCCOc2ccc(-c3ccccc3)cc2)CC1" , what EC50 is on record?
> 350 µM (not active)

Please examine the following record next.
For the compound Cc1ccc(Oc2ncc(CN3CC(C)OC(C)C3)s2)cc1 (centres undefined) , what EC50 is on record?
> 350 µM (not active)

* * *

Target: UniProt:P08684
Conditions: Potency
TEST READOUT: AC50

Guide cases for AC50, answers given:
I'm curious: which AC50 was measured for "Cc1nc(NCc2ccccc2)c2nc(-c3ccccc3)n(CCN(C)C)c2n1" tested on UniProt:P08684?
12.6 µM (inconclusive)

I'm curious: which AC50 was measured for "CC(C)c1cccc(=O)c(O)c1" tested on UniProt:P08684?
0.631 µM (inconclusive)

I'm curious: which AC50 was measured for "COC(=O)[C@@H]1C[C@@]2(O)[C@@H](O)[C@@H](O)[C@@H](O)C[C@H]2N1CC1CCCCC1" tested on UniProt:P08684?
12.6 µM (inconclusive)

I'm curious: which AC50 was measured for "CCC1=C2CC[C@H]3C(=O)N(c4ccccc4)C(=O)[C@H]3[C@H]2[C@@]2(C)C(=O)N(CC(=O)OC)C(=O)N2C1=O" tested on UniProt:P08684?
15.8 µM (inconclusive)

New cases:
I'm curious: which AC50 was measured for "C[C@@H]1C=C[C@](Cc2ccccc2)(C(=O)NCCCNc2ncc(C(F)(F)F)cc2Cl)N1C(=O)c1ccccc1" tested on UniProt:P08684?
3.98 µM (inconclusive)

* * *

Reported IC50 values for the following compounds.
Target: Polyadenylate-binding protein 1 (Homo sapiens, UniProt P11940)
Sequence (P11940 whole entry): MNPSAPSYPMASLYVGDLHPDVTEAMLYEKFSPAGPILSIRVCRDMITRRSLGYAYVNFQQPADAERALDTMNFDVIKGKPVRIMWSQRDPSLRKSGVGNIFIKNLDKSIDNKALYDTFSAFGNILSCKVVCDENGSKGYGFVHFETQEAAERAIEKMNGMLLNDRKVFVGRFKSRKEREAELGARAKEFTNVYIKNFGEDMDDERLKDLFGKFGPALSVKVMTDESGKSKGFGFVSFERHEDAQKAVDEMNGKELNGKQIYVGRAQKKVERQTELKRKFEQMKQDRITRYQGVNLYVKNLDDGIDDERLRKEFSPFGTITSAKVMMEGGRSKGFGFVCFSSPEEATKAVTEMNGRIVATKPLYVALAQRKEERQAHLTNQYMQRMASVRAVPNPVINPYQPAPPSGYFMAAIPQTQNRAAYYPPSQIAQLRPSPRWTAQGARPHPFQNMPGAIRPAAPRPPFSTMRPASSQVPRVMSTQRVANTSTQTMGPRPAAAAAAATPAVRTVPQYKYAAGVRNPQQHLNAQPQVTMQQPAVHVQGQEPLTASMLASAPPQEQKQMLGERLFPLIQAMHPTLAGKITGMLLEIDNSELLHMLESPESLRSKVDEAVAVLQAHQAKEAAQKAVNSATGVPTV
Assay: MLLE binding blockers, Cy5 peptide tracer – biochemical, fluorescence polarization, Cy5-PAM2 peptide, secondary, miRNA deadenylation inhibitor project, dose response (AID 602260)
Type: functional
Details: read-out: IC50_Mean
Calls of active or inactive are those of the source.

For the compound "CCc1ccc(S(=O)(=O)N=C(S)NC2CCCCC2)cc1" , what IC50 is on record?
> 66 µM (inactive)

For the compound "Cc1cc(C)nc(S/C=C/C(=O)c2ccccc2F)n1" , what IC50 is on record?
> 66 µM (inactive)

For the compound "CC(=O)c1ccc(NC(=S)Nc2ccc(Br)c(Cl)c2)cc1" , what IC50 is on record?
> 66 µM (inactive)

For the compound CS(=O)(=O)N1CCN(C(=O)C(Sc2ccccc2)c2ccccc2)CC1 (stereo not given) , what IC50 is on record?
> 66 µM (inactive)

For the compound "Cc1ccc(S(=O)(=O)CCSc2cccc(C(=O)Nc3ccccc3C(=O)O)c2)cc1" , what IC50 is on record?
> 66 µM (inactive)

For the compound "COc1ccc2[nH]c3c(=O)n(CCCCC(=O)N4CCC(C(N)=O)CC4)c(=S)[nH]c3c2c1" , what IC50 is on record?
> 66 µM (inactive)

For the compound O=C(CSc1nnc(C2COc3ccccc3O2)o1)N1CCCC1 (stereo not given) , what IC50 is on record?
> 66 µM (inactive)

* * *

Target: Cytochrome P450 3A4 (Homo sapiens, UniProt P08684)
Sequence (P08684 whole entry): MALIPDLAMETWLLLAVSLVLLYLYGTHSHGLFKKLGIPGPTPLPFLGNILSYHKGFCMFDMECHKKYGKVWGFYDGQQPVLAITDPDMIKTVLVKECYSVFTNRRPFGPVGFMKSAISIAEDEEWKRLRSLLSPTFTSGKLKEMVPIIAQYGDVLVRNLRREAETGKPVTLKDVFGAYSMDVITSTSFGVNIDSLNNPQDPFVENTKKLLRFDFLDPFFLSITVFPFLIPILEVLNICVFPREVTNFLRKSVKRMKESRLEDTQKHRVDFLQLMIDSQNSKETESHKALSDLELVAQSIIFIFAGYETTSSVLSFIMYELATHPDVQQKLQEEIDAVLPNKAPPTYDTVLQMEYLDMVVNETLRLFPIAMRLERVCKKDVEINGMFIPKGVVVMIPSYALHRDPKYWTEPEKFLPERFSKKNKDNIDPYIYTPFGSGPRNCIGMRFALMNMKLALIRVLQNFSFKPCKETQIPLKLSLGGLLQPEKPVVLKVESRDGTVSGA
Reported AC50 values for the following compounds.

For the compound "CS(=O)(=O)Nc1ccc(C(=O)N2CCN(c3ccccc3)CC2)cc1" , what AC50 is on record?
25.1 µM (inconclusive)

For the compound "CCOC(=O)c1cccc(NC(=O)COc2ccc([N+](=O)[O-])cc2)c1" , what AC50 is on record?
15.8 µM (inconclusive)

For the compound "O=C(C[N+]12CN3CN(CN(C3)C1)C2)c1ccc(-c2ccccc2)cc1" , what AC50 is on record?
3.16 µM (inconclusive)

For the compound O=C1c2ccccc2CCC12N=NCC2c1ccc(Cl)cc1 (stereo not given) , what AC50 is on record?
39.8 µM (inconclusive)

For the compound "CCOC(=O)Cc1csc(NC(=O)c2sc3nc4ccc(CC)cc4cc3c2N)n1" , what AC50 is on record?
35.5 µM (inconclusive)

For the compound "Cc1cccc(NC2=NN=C(c3ccc4c(c3)OCCO4)CS2)c1" , what AC50 is on record?
2.82 µM (inconclusive)

Please examine the following record next.
For the compound "COCC(=O)N1CCC2(CCCN(Cc3ccncc3)C2)CC1" , what AC50 is on record?
12.6 µM (inconclusive)

* * *

Target: Cytochrome P450 1A2 (Homo sapiens, UniProt P05177);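 also: PubChem cytochrome P450 panel assay, CYP1A2 panel member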
Sequence (P05177 whole entry): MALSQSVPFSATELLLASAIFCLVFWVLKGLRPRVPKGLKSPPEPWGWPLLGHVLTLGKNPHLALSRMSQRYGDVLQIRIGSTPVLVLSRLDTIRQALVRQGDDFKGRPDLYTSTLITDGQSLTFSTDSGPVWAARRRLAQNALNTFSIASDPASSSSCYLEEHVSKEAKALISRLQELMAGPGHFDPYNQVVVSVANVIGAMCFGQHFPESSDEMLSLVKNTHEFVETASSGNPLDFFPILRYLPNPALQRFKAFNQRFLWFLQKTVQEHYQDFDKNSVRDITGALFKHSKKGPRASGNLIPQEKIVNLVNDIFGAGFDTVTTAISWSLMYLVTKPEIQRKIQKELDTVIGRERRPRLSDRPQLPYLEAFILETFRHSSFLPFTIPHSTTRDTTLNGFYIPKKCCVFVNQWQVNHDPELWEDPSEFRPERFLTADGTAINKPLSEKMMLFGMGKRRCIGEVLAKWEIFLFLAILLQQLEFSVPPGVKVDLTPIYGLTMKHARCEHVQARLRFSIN
TEST READOUT: AC50

Guide cases for AC50, answers given:
For the molecule CS(=O)(=O)Nc1ccc([N+](=O)[O-])cc1Oc1ccccc1 [NIMESULIDE] , what AC50 is on record?
12.6 µM (inconclusive)

For the molecule "CN(C)CCC=C1c2ccccc2CCc2ccccc21" , what AC50 is on record?
15.8 µM (inconclusive)

For the molecule "NCCSC(c1ccccc1)c1ccccc1" , what AC50 is on record?
1.58 µM (inconclusive)

For the molecule "O=C(c1c[nH]c(=O)n(-c2ccccc2)c1=O)N1CCc2ccccc21" , what AC50 is on record?
0.0794 µM (inconclusive)

For the molecule "CC(=O)O/C(=C1/C[C@H]2[C@@H]3CC=C4C[C@@H](OC(C)=O)CC[C@]4(C)[C@@H]3CC[C@]2(C)C1=O)C(F)(F)F" , what AC50 is on record?
5.01 µM (inconclusive)

For the molecule "CC(=O)NCCNc1cc(-c2ccccc2C(F)(F)F)ncn1" , what AC50 is on record?
25.1 µM (inconclusive)

For the molecule "CC1=C2[C@@H]3OC(=O)[C@@H](C)[C@@H]3CC[C@]2(C)C=CC1=O" , what AC50 is on record?
10 µM (inconclusive)

For the molecule CCN(CC)CCNC(=O)c1cc(Br)c(N)cc1OC [BROMOPRIDE] , what AC50 is on record?
10 µM (inconclusive)

For the molecule "CCNc1ncc2nc(-c3ccc(F)cc3)c(=O)n(Cc3ccc(F)cc3)c2n1" , what AC50 is on record?
20 µM (inconclusive)

For the molecule "O=C(Cn1ccc([N+](=O)[O-])n1)NCc1cccs1" , what AC50 is on record?
15.8 µM (inconclusive)

New cases:
For the molecule O=C1c2ccccc2CCC12N=NCC2c1ccc(Cl)cc1 (stereo not drawn) , what AC50 is on record?
20 µM (inconclusive)
